# testedSystem: S. pneumoniae neuraminidase (NanA) (Streptococcus pneumoniae)
# Construct: residues 116-1035 of S. pneumoniae D39 sialidase A precursor (NanA); made in house; host or cells: E. coli BL21(DE3), pET28a
# Sequence (P62575 116-1035): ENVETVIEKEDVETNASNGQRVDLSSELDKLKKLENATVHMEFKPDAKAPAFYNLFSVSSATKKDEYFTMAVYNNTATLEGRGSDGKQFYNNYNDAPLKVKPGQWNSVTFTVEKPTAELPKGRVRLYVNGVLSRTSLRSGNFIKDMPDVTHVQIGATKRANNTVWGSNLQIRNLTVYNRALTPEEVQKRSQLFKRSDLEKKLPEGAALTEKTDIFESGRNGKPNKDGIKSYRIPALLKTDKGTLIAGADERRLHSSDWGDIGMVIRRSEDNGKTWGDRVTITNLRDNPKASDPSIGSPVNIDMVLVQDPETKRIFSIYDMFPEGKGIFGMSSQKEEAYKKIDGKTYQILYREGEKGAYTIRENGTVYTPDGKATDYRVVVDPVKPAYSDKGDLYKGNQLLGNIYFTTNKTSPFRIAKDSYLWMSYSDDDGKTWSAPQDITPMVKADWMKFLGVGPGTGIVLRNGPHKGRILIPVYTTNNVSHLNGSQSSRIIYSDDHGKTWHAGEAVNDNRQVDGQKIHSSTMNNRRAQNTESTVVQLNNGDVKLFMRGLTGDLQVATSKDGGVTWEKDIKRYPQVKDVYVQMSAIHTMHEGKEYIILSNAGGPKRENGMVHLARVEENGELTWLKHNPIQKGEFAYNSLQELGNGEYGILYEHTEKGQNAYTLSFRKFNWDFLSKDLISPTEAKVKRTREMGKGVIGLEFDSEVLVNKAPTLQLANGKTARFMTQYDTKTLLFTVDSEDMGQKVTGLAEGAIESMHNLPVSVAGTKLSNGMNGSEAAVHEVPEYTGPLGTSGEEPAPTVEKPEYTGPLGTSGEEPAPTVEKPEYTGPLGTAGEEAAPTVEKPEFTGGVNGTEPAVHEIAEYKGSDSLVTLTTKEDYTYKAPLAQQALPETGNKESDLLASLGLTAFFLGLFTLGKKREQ
# assayProcedure: Neuraminidase assay with fluorogenic substrate MNN, NanA
# Format: biochemical
# setupConditions: IC50 against NanA, Example 3; dose response fitted with logarithmic-based trend line
measurementKind: IC50 (µM)
Report only the number, with the unit µM understood.

Any idea what its IC50 is? The compound is COc1ccc([C@H]2[C@H](C(=O)c3ccc(Cl)cc3)C(=O)C(=O)N2c2cccc(C(=O)O)c2)cc1 [XX1]
28

// data source = patent US20110280813A1
